# EXPERIMENTAL_SYSTEM: UniProt P53355
# Sequence (P53355 whole entry, looked up): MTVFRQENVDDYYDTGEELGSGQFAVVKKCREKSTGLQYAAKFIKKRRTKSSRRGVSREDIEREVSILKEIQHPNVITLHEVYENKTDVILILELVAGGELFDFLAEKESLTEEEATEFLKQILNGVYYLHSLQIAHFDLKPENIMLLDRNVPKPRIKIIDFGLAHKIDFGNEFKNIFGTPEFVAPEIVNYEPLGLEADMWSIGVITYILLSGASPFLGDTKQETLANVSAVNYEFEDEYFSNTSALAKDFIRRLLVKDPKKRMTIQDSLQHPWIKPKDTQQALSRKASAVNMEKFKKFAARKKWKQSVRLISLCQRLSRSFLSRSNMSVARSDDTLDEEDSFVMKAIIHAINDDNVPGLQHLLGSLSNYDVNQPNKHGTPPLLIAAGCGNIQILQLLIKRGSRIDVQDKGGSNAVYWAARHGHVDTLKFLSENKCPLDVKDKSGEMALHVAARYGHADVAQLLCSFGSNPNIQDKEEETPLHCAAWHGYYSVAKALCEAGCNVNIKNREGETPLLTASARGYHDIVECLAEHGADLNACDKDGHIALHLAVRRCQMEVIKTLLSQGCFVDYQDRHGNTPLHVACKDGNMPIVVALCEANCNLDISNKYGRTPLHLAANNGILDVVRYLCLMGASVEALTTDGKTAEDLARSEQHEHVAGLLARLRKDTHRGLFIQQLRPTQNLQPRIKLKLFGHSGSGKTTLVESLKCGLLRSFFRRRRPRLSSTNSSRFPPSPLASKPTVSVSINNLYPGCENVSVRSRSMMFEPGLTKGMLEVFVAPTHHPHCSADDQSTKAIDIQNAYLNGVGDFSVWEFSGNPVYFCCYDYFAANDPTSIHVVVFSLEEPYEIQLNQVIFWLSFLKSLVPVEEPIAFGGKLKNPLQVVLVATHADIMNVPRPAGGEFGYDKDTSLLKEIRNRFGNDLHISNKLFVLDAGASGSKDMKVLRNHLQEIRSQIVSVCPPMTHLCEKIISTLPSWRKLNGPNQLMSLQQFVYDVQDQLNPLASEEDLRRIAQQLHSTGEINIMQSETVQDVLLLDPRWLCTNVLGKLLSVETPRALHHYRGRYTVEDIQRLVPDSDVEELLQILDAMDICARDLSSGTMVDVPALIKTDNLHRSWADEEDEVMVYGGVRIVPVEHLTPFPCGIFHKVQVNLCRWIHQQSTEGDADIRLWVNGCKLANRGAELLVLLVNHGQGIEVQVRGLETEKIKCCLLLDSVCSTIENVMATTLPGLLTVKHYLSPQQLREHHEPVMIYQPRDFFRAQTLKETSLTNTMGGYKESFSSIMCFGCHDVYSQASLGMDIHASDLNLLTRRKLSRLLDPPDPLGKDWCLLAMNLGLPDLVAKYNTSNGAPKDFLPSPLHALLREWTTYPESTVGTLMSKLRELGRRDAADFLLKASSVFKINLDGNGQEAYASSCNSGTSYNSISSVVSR
# ASSAY_PROTOCOL: radiometric filter-binding kinase assay
# CONDITION_CONTEXT: compound 10.0 µM
We'd kindly ask you to apply these residual activity classes: lower bin = under 20%, middle bin = from 20% up to 90%, upper bin = 90% and over

NC(=O)c1ccc(-c2ccc(Oc3cncc4sc(-c5nn[nH]n5)cc34)cc2)cc1
lower bin
CCCC(CCC)C(=O)O
upper bin
COc1cc(C(=O)N2CCOCC2)c(F)cc1Nc1ncc(C(F)(F)F)c(NC2CC2)n1
lower bin
COC(=O)/C=C/C(=O)OC
upper bin
NC1(c2ccc(-c3nc4ccn5c(=O)[nH]nc5c4cc3-c3ccccc3)cc2)CCC1
middle bin
COc1cc2ncn(-c3cc(OCc4ccccc4S(C)(=O)=O)c(C#N)s3)c2cc1OC
middle bin
NC(=O)c1c(NC(=O)C2CC2)sc2c1CCCC2
middle bin
CCNc1nc(Nc2cc(F)c(C(=O)N3CCOCC3)cc2OC)ncc1C(F)(F)F
lower bin
CNc1nc(-c2ccc3c(N)n[nH]c3c2)cc(N2C[C@@H](C(=O)NC3CCCCC3)CC[C@H]2C)n1
lower bin

* * *

In this section we review reported residual activity values for a set of compounds.
# EXPERIMENTAL_SYSTEM: DYRK1A (human) (UniProt Q13627)
# ASSAY_PROTOCOL: radiometric filter-binding kinase assay
# CONDITION_CONTEXT: compound 0.01 µM
OUTCOME_MEASURE: residual activity

C/C(=C1/C(=O)Nc2ccc(NC(N)=O)cc21)c1ccc[nH]1
91%
CNc1nc(-c2ccc3c(N)n[nH]c3c2)cc(N2C[C@@H](C(=O)NC3CCCCC3)CC[C@H]2C)n1
102%
O=C(Nc1nc2cc(C(F)(F)F)cc(NC3CC3)n2n1)c1cccnc1
94%
CNC(=O)C1[C@H]2O[C@@](C)([C@@H]1N)n1c3ccccc3c3c4c(c5c6ccccc6n2c5c31)C(=O)NC4 (stereo partly specified)
29%
COc1ccc(N(C(=O)Nc2c(C)cccc2C)c2cc(Nc3ccc(N4CCN(C)CC4)cc3)ncn2)c(OC)c1
100%
COc1cc(O)c2c(c1)[C@H]1OC1C[C@H](O)[C@H](O)C(=O)/C=C\C[C@H](C)OC2=O (stereo partly specified)
98%

* * *

In this section we review reported residual activity values for a set of compounds.
# EXPERIMENTAL_SYSTEM: MAP3K1 (human) (UniProt Q13233)
# Sequence (Q13233 whole entry, looked up): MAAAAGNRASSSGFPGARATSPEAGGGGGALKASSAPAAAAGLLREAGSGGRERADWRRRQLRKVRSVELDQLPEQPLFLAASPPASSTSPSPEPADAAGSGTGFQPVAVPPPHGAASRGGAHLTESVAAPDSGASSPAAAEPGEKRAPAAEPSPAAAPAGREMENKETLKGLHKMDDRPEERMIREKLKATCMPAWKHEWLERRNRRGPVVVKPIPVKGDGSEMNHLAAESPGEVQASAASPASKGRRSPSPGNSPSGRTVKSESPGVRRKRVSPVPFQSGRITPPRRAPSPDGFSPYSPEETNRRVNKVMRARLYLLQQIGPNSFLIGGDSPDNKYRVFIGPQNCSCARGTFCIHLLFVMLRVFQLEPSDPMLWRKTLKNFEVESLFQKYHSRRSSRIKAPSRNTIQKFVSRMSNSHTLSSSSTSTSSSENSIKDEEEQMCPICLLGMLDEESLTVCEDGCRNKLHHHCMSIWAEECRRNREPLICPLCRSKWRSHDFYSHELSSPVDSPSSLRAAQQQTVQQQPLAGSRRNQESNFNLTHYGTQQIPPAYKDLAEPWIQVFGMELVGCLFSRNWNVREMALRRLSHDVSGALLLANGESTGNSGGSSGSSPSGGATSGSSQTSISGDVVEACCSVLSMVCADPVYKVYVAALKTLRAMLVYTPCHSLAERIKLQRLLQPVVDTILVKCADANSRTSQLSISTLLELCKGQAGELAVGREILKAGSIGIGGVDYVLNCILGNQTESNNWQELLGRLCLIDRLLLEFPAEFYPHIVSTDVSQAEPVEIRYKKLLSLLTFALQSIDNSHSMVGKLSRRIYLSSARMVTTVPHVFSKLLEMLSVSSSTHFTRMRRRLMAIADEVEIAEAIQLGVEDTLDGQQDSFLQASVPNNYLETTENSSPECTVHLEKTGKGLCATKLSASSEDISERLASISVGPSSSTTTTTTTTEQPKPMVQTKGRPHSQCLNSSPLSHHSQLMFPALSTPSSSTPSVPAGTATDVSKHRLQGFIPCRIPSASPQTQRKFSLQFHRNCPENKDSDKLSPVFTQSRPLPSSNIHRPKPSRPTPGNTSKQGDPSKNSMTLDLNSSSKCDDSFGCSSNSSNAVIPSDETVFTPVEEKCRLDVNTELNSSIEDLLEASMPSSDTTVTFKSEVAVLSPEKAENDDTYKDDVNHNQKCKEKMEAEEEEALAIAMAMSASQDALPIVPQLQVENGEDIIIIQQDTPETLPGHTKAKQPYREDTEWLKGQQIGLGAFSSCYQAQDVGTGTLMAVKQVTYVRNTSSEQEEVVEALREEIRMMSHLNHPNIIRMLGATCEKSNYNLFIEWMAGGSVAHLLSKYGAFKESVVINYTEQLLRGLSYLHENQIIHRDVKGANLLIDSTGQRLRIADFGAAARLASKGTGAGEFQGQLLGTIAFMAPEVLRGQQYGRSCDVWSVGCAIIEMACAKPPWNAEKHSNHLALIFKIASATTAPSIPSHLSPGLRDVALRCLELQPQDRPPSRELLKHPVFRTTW
# ASSAY_PROTOCOL: radiometric filter-binding kinase assay
# CONDITION_CONTEXT: compound 1.0 µM
OUTCOME_MEASURE: residual activity (%)

FC(F)(F)c1ccc(-c2ccc(Oc3cncc4sc(-c5nn[nH]n5)cc34)cc2)cc1
109
CCCCCc1ccc(/C=C/[C@H](O)[C@@H](CO)NC)cc1
99
c1ccc2c(-c3cnn4cc(-c5ccc(N6CCNCC6)cc5)cnc34)ccnc2c1
83
O=C(NOCC(O)CO)c1ccc(F)c(F)c1Nc1ccc(I)cc1Cl (stereo not given)
88
NC1(c2ccc(-c3nc4ccn5c(=O)[nH]nc5c4cc3-c3ccccc3)cc2)CCC1
101

* * *

In this section we review reported residual activity values for a set of compounds.
# EXPERIMENTAL_SYSTEM: STK24 (human) (UniProt Q9Y6E0)
# Sequence (Q9Y6E0 whole entry, looked up): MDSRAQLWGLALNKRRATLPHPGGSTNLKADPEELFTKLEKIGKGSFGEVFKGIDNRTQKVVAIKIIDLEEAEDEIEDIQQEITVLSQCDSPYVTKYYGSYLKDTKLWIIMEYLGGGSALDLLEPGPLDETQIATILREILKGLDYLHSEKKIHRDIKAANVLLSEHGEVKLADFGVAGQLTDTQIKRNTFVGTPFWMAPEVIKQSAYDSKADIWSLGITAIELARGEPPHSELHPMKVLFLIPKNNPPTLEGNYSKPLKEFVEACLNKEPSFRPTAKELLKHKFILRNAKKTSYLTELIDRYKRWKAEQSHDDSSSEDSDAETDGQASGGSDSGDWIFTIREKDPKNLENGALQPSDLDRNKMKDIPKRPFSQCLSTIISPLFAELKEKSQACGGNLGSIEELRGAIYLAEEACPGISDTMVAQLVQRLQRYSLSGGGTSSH
# ASSAY_PROTOCOL: radiometric filter-binding kinase assay
# CONDITION_CONTEXT: compound 1.0 µM
OUTCOME_MEASURE: residual activity (%)

COc1cc(O)c2c(c1)[C@H]1OC1C[C@H](O)[C@H](O)C(=O)/C=C\C[C@H](C)OC2=O (stereo partly specified)
114
COc1ccc(N(C(=O)Nc2c(C)cccc2C)c2cc(Nc3ccc(N4CCN(C)CC4)cc3)ncn2)c(OC)c1
40
NCC(=O)Nc1ccc(-n2nc(C(F)(F)F)cc2-c2ccc3c(ccc4ccccc43)c2)cc1
84
Cc1ccc(-c2ccc3c(ccc4sc5c(c43)NC[C@@H](C)NC5=O)n2)cn1
109
O=C(Nc1cccnc1)c1cc(-c2ccnc(F)c2)ccc1OCc1ccccc1
101
CC1=C(CO)C(=O)O[C@@H]([C@@H](C)[C@H]2CC[C@H]3[C@@H]4C[C@H]5O[C@]56[C@@H](O)C=CC(=O)[C@]6(C)C4CC[C@]23C)C1 (stereo partly specified)
126

* * *

# EXPERIMENTAL_SYSTEM: NEK2 (human) (UniProt P51955)
# Sequence (P51955 whole entry, looked up): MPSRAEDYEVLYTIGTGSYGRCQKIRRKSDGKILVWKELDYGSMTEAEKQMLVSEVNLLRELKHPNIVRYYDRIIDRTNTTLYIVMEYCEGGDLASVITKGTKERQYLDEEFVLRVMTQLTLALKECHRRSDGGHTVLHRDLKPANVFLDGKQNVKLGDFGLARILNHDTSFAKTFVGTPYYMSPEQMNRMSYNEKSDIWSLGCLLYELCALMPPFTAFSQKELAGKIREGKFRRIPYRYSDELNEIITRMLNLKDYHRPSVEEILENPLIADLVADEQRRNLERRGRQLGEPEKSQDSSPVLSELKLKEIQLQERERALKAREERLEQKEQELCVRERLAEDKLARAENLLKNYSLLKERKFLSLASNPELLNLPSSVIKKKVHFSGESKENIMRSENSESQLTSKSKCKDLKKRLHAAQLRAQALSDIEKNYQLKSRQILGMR
# ASSAY_PROTOCOL: radiometric filter-binding kinase assay
# CONDITION_CONTEXT: compound 10.0 µM
Label Fulfilled for high-side residual activity (at or above 70%) and Not fulfilled for low-side residual activity (below it).

NC(=O)c1cc2c(-c3cccc(-c4ccccc4)c3)cnc(N)c2s1
Not fulfilled
Oc1ccc(/C=C/c2cc(O)cc(O)c2)cc1
Fulfilled
Cc1nc(-c2ccc(OCC(C)C)c(C#N)c2)sc1C(=O)O
Fulfilled
NC(=O)c1cc(-c2ccnc(NC3CCCCC3)c2)nc(N2CCNCC2)c1
Fulfilled
COc1cc2ncn(-c3cc(OCc4ccccc4S(C)(=O)=O)c(C#N)s3)c2cc1OC
Not fulfilled
COC(=O)/C=C/C(=O)OC
Fulfilled
O=C(O)c1cc(N=Nc2ccc(S(=O)(=O)Nc3ccccn3)cc2)ccc1O
Fulfilled
O=c1c(O)c(-c2ccc(O)c(O)c2)oc2cc(O)c(O)c(O)c12
Not fulfilled
C=CC(=O)N1CCC[C@@H](n2nc(-c3ccc(Oc4ccccc4)cc3)c3c(N)ncnc32)C1
Not fulfilled
Cc1cc(SCc2sc(-c3ccc(C(F)(F)F)cc3)nc2C)ccc1OCC(=O)O
Fulfilled

* * *

# EXPERIMENTAL_SYSTEM: MARK3 (human)
# ASSAY_PROTOCOL: radiometric filter-binding kinase assay
# CONDITION_CONTEXT: compound 0.1 µM
Param label: returns 1 when residual activity < 90%, returns -1 otherwise, including exact equality.

CN1CCN(CCOc2cc(OC3CCOCC3)c3c(Nc4c(Cl)ccc5c4OCO5)ncnc3c2)CC1
-1
CNC(=O)C1[C@H]2O[C@@](C)([C@@H]1N)n1c3ccccc3c3c4c(c5c6ccccc6n2c5c31)C(=O)NC4 (stereo partly specified)
1
COc1ccc(-n2ncc3cnc(Nc4cc(OC)c(OC)c(OCCCN5CCN(C)CC5)c4)nc32)cc1
1
CCCCCc1ccc(/C=C/[C@H](O)[C@@H](CO)NC)cc1
-1
Cc1ccc(Sc2cnc(Nc3cccc(Br)n3)s2)cc1C(=O)N1CCN(C(=O)CN)CC1
-1
O=C(Nc1nc2cc(C(F)(F)F)cc(NC3CC3)n2n1)c1cccnc1
1
C/C(=C1/C(=O)Nc2ccc(NC(N)=O)cc21)c1ccc[nH]1
1
CNc1nc(-c2ccc3c(N)n[nH]c3c2)cc(N2C[C@@H](C(=O)NC3CCCCC3)CC[C@H]2C)n1
-1
O=C(NCCCNc1nc(Nc2cccc(CN3CCOCC3)c2)ncc1C1CC1)C1CCC1
1
Cc1ccc(-c2ccc3c(ccc4sc5c(c43)NC[C@@H](C)NC5=O)n2)cn1
-1
C=CC(=O)N1CCC[C@@H](n2nc(-c3ccc(Oc4ccccc4)cc3)c3c(N)ncnc32)C1
-1
COc1cc(O)c2c(c1)[C@H]1OC1C[C@H](O)[C@H](O)C(=O)/C=C\C[C@H](C)OC2=O (stereo partly specified)
-1
COc1ccc2c(c1)c1c3c(c4c5ccccc5n(C)c4c1n2CC(O)CN(C)C)C(=O)NC3=O (stereo unspecified)
-1
NC1(c2ccc(-c3nc4ccn5c(=O)[nH]nc5c4cc3-c3ccccc3)cc2)CCC1
1
c1ccc2c(-c3cnn4cc(-c5ccc(N6CCNCC6)cc5)cnc34)ccnc2c1
1
O=C(N[C@@H](COc1ccc2[nH]c(=O)[nH]c2c1)c1ccccc1)c1cccn(Cc2ccc(F)c(F)c2)c1=O
-1
Cc1cccc(-c2nn(C(=S)Nc3ccccc3)cc2-c2ccnc3ccccc23)n1
-1

* * *

# EXPERIMENTAL_SYSTEM: STK3 (human)
# ASSAY_PROTOCOL: radiometric filter-binding kinase assay
# CONDITION_CONTEXT: compound 0.1 µM
Label 1 for high-side residual activity (at or above 80%) and -1 for low-side residual activity (below it).

CCn1c(-c2nonc2N)nc2cncc(CNC3CCNCC3)c21
1
CNc1nc(-c2ccc3c(N)n[nH]c3c2)cc(N2C[C@@H](C(=O)NC3CCCCC3)CC[C@H]2C)n1
1
COc1ccc2c(c1)c1c3c(c4c5ccccc5n(C)c4c1n2CC(O)CN(C)C)C(=O)NC3=O (centres undefined)
-1
O=C(O)c1ccc(-c2c[nH]c3ncc(-c4ccccc4)cc23)cc1C1CCCC1
-1
Cn1c(=O)c2c(ncn2C)n(C)c1=O
1
COc1cc(O)c2c(c1)[C@H]1OC1C[C@H](O)[C@H](O)C(=O)/C=C\C[C@H](C)OC2=O (some centres undefined)
1
CN(C)C/C=C/C(=O)Nc1cccc(C(=O)Nc2ccc(Nc3nccc(-c4cccnc4)n3)cc2)c1
1
CCCCCc1ccc(/C=C/[C@H](O)[C@@H](CO)NC)cc1
1
